Each recorded value in this set is attributed to paper PMC10508264.

# SYSTEM_NAME: BSA (Bos taurus)
# ASSAY_COMMENT: FRET computation, donor (BSA)–acceptor (compound)
# Type: binding, bovine
# Design: unit not given here
READOUT_KIND: kET (rate of energy transfer)
The answer should be written as a number, with no unit following it.

>>> numeric_result("[Co+2].[O-]c1ccccc1N=Cc1ccc(N2CCOCC2)cc1.[O-]c1ccccc1N=Cc1ccc(N2CCOCC2)cc1.c1ccc(-c2ccccn2)nc1")
10.000
>>> numeric_result("[Ni+2].[O-]c1ccccc1N=Cc1ccc(N2CCOCC2)cc1.[O-]c1ccccc1N=Cc1ccc(N2CCOCC2)cc1.c1ccc(-c2ccccn2)nc1")
13.2142
>>> numeric_result("[Mn+2].[O-]c1ccccc1N=Cc1ccc(N2CCOCC2)cc1.[O-]c1ccccc1N=Cc1ccc(N2CCOCC2)cc1.c1ccc(-c2ccccn2)nc1")
8.0556

// query Supply reported kET (rate of energy transfer) belonging to this compound: Oc1ccccc1N=Cc1ccc(N2CCOCC2)cc1
// result 5.2941

* * *

# SYSTEM_NAME: BSA (Bos taurus)
# ASSAY_COMMENT: BSA fluorescence quenching titration
# Type: binding, bovine
# RECORDED_CONDITIONS: BSA
# Experimental: Titrations were performed for all tested compounds (1–200 μM) with pre-incubated EB-bound DNA and the intensity variations between 510 nm and 610 nm were carefully monitored in the presence and absence of DNA (200 μM) during the initial emission and excitation by EB.[31] Fluorescence emission spectral titration is an efficient approach to evaluating the binding properties of DNA/BSA biomolecules. […] As a result, strong fluorescence is only seen on surfaces facing the excitation beam.
Collected n, number of binding sites (SV method II), BSA values appear next to each entry.
Give the figure only, with no unit attached.

>>> numeric_result("[Co+2].[O-]c1ccccc1N=Cc1ccc(N2CCOCC2)cc1.[O-]c1ccccc1N=Cc1ccc(N2CCOCC2)cc1.c1ccc(-c2ccccn2)nc1 [(2)]")
1.018
>>> numeric_result("Oc1ccccc1N=Cc1ccc(N2CCOCC2)cc1 [(HL), 2-(4-morpholinobenzylideneamino)phenol]")
0.926
>>> numeric_result("[Mn+2].[O-]c1ccccc1N=Cc1ccc(N2CCOCC2)cc1.[O-]c1ccccc1N=Cc1ccc(N2CCOCC2)cc1.c1ccc(-c2ccccn2)nc1 [(1)]")
0.954

Attention now shifts to the item below.
// query State its n, number of binding sites (SV method II), BSA for this molecule: [Ni+2].[O-]c1ccccc1N=Cc1ccc(N2CCOCC2)cc1.[O-]c1ccccc1N=Cc1ccc(N2CCOCC2)cc1.c1ccc(-c2ccccn2)nc1 [(3)]
// result 1.051

* * *

# SYSTEM_NAME: BSA (Bos taurus, UniProt P02769)
# ASSAY_COMMENT: FRET computation, donor (BSA)–acceptor (compound)
# Assay type: binding, bovine
READOUT_KIND: R0 (Förster radius) (nm)
Report only the number, with the unit nm understood.

Some solved entries appear below for comparison.
>>> numeric_result("[Ni+2].[O-]c1ccccc1N=Cc1ccc(N2CCOCC2)cc1.[O-]c1ccccc1N=Cc1ccc(N2CCOCC2)cc1.c1ccc(-c2ccccn2)nc1 [(3)]")
2.5274
>>> numeric_result("[Co+2].[O-]c1ccccc1N=Cc1ccc(N2CCOCC2)cc1.[O-]c1ccccc1N=Cc1ccc(N2CCOCC2)cc1.c1ccc(-c2ccccn2)nc1 [(2)]")
2.5297
>>> numeric_result("[Mn+2].[O-]c1ccccc1N=Cc1ccc(N2CCOCC2)cc1.[O-]c1ccccc1N=Cc1ccc(N2CCOCC2)cc1.c1ccc(-c2ccccn2)nc1 [(1)]")
2.5573

From here, focus on the item given below.
// query Answer with the recorded R0 (Förster radius) of Oc1ccccc1N=Cc1ccc(N2CCOCC2)cc1 [(HL), 2-(4-morpholinobenzylideneamino)phenol] only.
// result 2.4400
